# protocolDescription: in vitro
# measurementContext: human, hek293t cells
quantityMeasured: viability at 48 h, 25 µM (%)
Supply the numeric figure in %, leaving out any unit text.

Known results for compounds:
O=C(CCl)Nc1ccc(C(F)(F)F)cc1[N+](=O)[O-] :: 87.1
O=C(CCl)N(Cc1ccccc1)Cc1ccco1 :: 0.693
N#CC(=Cc1c[nH]c2ccccc12)C(=O)Nc1cccc2ncccc12 :: 101
CCCC(=O)N1CCC(NC(=O)CCl)c2ccccc21 (stereo not shown) :: 17.5

Below: the item to evaluate.
// field: viability at 48 h, 25 µM; key: `C=CC(=O)Nc1cc(NC(=O)c2cnn(-c3ccccc3)c2)ccc1F` ; value = 0.749

---

# protocolDescription: in vitro
# measurementContext: human, hek293t cells
Readings of viability at 48 h, 25 µM for the listed compounds
Supply the numeric figure in %, leaving out any unit text.

C=CC(=O)N1CCC(C(=O)Nc2cccc(NC(=O)C(C)C)c2)CC1 :: 53.3

// field: viability at 48 h, 25 µM; key: `COc1cc(OC)c(NC(=O)CCl)cc1Cl` ; value = 0.402

// field: viability at 48 h, 25 µM; key: C=CC(=O)N(Cc1cc(Cl)ccc1OC)C1CCCOCC1 (stereo not drawn) ; value = 95.3

// field: viability at 48 h, 25 µM; key: CC(Cl)C(=O)N(C)C1CCN(c2ccccc2Cl)C1=O (stereo not drawn) ; value = 77.8

// field: viability at 48 h, 25 µM; key: `Cc1ccc(NC(=O)C(C#N)=Cc2cccc([N+](=O)[O-])c2)cc1` ; value = 88.1

---

Readings of viability at 48 h, 25 µM for the listed compounds
# protocolDescription: in vitro
# measurementContext: human, hek293t cells
Supply the numeric figure in %, leaving out any unit text.

Known results for compounds:
Cc1c(NC(=O)CCl)cccc1[N+](=O)[O-] :: 1.23
CC(Cl)C(=O)NCC1CCCCN1C(=O)C(F)(F)F (stereo not shown) :: 83.8
O=C(CCl)c1cn(-c2ccc(F)cc2)nn1 :: 89.9
C=CC(=O)N1CCC(c2cnn(C)c2)CC1 :: 83.2
CC(=O)N(C)Cc1ccc(C(=O)CCl)cc1 :: 64

// field: viability at 48 h, 25 µM; key: `C=CC(=O)N(C)Cc1cccnc1` ; value = 82

// field: viability at 48 h, 25 µM; key: `C=CC(=O)N1CCCn2nc(CO)cc2C1` ; value = 109

// field: viability at 48 h, 25 µM; key: `O=C(CCl)Nc1ccc(OC(F)F)cc1` ; value = 1.07

// field: viability at 48 h, 25 µM; key: `C=CC(=O)NCCN(C)S(=O)(=O)c1cccs1` ; value = 129

// field: viability at 48 h, 25 µM; key: `COc1cc([N+](=O)[O-])ccc1N1C(=O)C=CC1=O` ; value = 97.6

// field: viability at 48 h, 25 µM; key: C=CC(=O)NC1CC(C2CCCCC2)C1 (stereo not shown) [1-D10, N-(3-cyclohexylcyclobutyl)prop-2-enamide] ; value = 75.7

// field: viability at 48 h, 25 µM; key: CC(Cl)C(=O)NC1(C(=O)Nc2ccccc2)CC1 (stereo not shown) ; value = 52

// field: viability at 48 h, 25 µM; key: CC(Cc1c[nH]c2cc(F)c(F)cc12)NC(=O)CCl (stereo not shown) ; value = 0.657

// field: viability at 48 h, 25 µM; key: COc1cccc([C@H]2C[C@H](N(C)C(=O)C(C)Cl)C2)c1 (stereo partly shown) ; value = 79.7

// field: viability at 48 h, 25 µM; key: CC(Cl)C(=O)Nc1cccc(S(=O)(=O)N(C)C)c1 (stereo not shown) ; value = 55.5

// field: viability at 48 h, 25 µM; key: C=CC(=O)NC1CCCN(Cc2ccccc2)C1 (stereo not shown) [1-K12, N-(1-benzylpiperidin-3-yl)prop-2-enamide] ; value = 82.8
